Overview of reported IC50 across a group of compounds:
Test system: HEK-293 cells
Test: In vitro cytotoxicity, SRB cell viability assay, normal kidney HEK-293
Format: cell-based
Settings: Homo sapiens, HEK293, HEK-293 normal kidney cells, 48 h, mean ± SD, triplicate
Lab book: enter the figure in µM, no units written.

Consider the reported IC50 for these compounds:
COc1ccc(/C=C/C(=O)c2ccc(OCCn3cc(CN4C(=O)/C(=C5\Nc6ccccc6\C5=N/O)c5ccccc54)nn3)cc2O)cc1 [Compound 6e]; 6.98
O=C1/C(=C2\Nc3ccccc3\C2=N/O)c2ccccc2N1Cc1cn(CCN2CCCCC2)nn1 [Compound 6n]; 9.52

Could you now look at the following compound, please?
q: # IC50 lookup, item CCCOc1cccc(/C=C/C(=O)c2ccc(OCCn3cc(CN4C(=O)/C(=C5\Nc6ccccc6\C5=N/O)c5ccccc54)nn3)cc2O)c1 [Compound 6k]
a: 1.92
